# target_under_test: T1, human MAdCAM expressed on cells (human, UniProt Q13477 19-382)
# T1 construct: whole, on cells; also called MADCAM1
# T1 sequence (looked up): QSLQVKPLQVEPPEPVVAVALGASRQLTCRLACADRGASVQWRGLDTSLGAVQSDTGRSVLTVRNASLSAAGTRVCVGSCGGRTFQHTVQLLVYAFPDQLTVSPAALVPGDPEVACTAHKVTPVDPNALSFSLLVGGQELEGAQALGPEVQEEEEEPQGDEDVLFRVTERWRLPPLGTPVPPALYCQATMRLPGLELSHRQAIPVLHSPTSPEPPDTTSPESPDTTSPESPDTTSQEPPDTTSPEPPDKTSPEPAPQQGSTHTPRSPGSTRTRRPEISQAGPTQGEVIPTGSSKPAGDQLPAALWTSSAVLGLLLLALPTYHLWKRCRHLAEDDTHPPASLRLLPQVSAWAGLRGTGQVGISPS
# assay_procedure: cell binding

| binder | binding result |
| --- | --- |
| MAdCAM Antibody Table 2 Clone 70 (antibody, human IgG1, V domains shown) VH: QVQLVQSGAEVKKPGASVKVSCKASGYPFTDYYMHWVRQAPGQGLEWMGWIKPNSGDTEYAQKFQGRVTMTRDTSTSTVYMELSSLRSEDTAVYYCARDRFVGKPDYYYYGMDVWGQGTMVTVSS VL: DIQMTQSPSSLSASVGDRVTITCRASQSISVWLAWYQQKPGKAPKLLIYAASSLQSGVPSRFSGSGSGTDFTLTISSLQPEDFATYYCQQSYDTPYTFGQGTKLEIK | binds |
| MAdCAM Antibody Table 2 Clone 84 (antibody, human IgG1, V domains shown) VH: QVQLVQSGAEVKKPGASVKVSCKASGGTFSSSAISWVRQAPGQGLEWMGWISAYNGYTNYAQKFQGRVTMTRDTSTSTVYMELSSLRSEDTAVYYCASRVHSGGSYPDDYWGQGTLVTVSS VL: DIQMTQSPSSLSASVGDRVTITCQASEHIYNYLNWYQQKPGKAPKLLIYAASSLQSGVPSRFSGSGSGTDFTLTISSLQPEDFATYYCQQTDSIPITFGQGTKVEIK | binds |
| MAdCAM Antibody Table 2 Clone 22 (antibody, human IgG1, V domains shown) VH: EVQLLESGGGLVQPGGSLRLSCAASGFTFDDYAMHWVRQAPGKGLEWVSGISWNSGSIGYADSVKGRFTISRDNSKNTLYLQMNSLRAEDTAVYYCAKDIVAAGHYYYGMDVWGQGTTVTVSS VL: DIQMTQSPSSLSASVGDRVTITCQASQDISNYLNWYQQKPGKAPKLLIYDASNLETGVPSRFSGSGSGTDFTLTISSLQPEDFATYYCQQSYSTPLTFGGGTKVEIK | binds |

Provenance of the data: patent US20210206856A1
